target: T1, HLA-A*0201 (human); experiment: iTopia affinity;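 note: peptide affinity for plate-bound HLA-A2 molecules (iTopia system), with ED50 derived from an eight-point serial peptide dilution series run under binding assay conditions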
T1 construct: also called HLA-A2.1; HLA A2.1
# binning rule on ED50: lower range: < 5 µM; middle range: ≥ 5 µM and < 7 µM; upper range: ≥ 7 µM

1. RQHFVYDHV [cdr2 168-176 RQHFVYDHV]
middle range
2. VTMEEEYGL [cdr2 217-225 VTMEEEYGL]
lower range
3. QAQLSLERQ [cdr2 206-214 QAQLSLERQ]
upper range
4. RGISLLHEV [cdr2 341-349 RGISLLHEV]
lower range
5. LASVNPEPV [cdr2 405-413 LASVNPEPV]
lower range
6. TVTMLQAQL [cdr2 201-209 TVTMLQAQL]
lower range
7. ELYDLRQHF [cdr2 163-171 ELYDLRQHF]
lower range
8. EMFLTVPES [cdr2 293-301 EMFLTVPES]
upper range
9. TMEEEYGLV [cdr2 218-226 TMEEEYGLV]
middle range
10. LKSSGQGRR [cdr2 136-144 LKSSGQGRR]
upper range
11. QLAAELGKT [cdr2 29-37 QLAAELGKT]
upper range
12. QSLLEEMFL [cdr2 288-296 QSLLEEMFL]
upper range
